assay_name: Plasma concentration in rat at 10 mg/kg, ip after 36 hrs by LC-MS/MS method
Format: ADME, organism-based
metric: concentration at 36 h

| compound_structure_string | val |
| --- | --- |
| Cc1c(C(=O)NC2CCN(C)CC2)oc2ccc(N(Cc3ccc(Br)cc3)S(=O)(=O)c3ccc(Br)cc3)cc12 | > 10 ng/mL |

* * *

assay_name: Distribution co-efficient, log D of the compound at pH 7.4
Assay type: physicochemical
settings: buffer
metric: logD

| compound_structure_string | metric | val |
| --- | --- | --- |
| CCN(CC)CCNC(=O)c1oc2ccc(N(Cc3ccc(Br)cc3)S(=O)(=O)c3ccc(Br)cc3)cc2c1C | logD | 2.53 |
| Cc1c(C(=O)NC2CCN(C)CC2)oc2ccc(N(Cc3ccc(Br)cc3)S(=O)(=O)c3ccc(Br)cc3)cc12 | logD | 3.15 |

Value source: ChEMBL document CHEMBL4130343
